Measured values drawn from FireProtDB (doi:10.1021/bi0015717) for this set.

Kindly supply the reported change of melting temperature, mutant - wild type (higher = more stable) values for the records listed here.
B1: Lysozyme C, P61626 (parent)
chain: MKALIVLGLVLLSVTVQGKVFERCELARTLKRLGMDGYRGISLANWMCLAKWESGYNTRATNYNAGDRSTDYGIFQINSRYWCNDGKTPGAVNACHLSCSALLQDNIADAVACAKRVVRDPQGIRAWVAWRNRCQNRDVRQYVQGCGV

# Variants of: B1
# Particulars: Homo sapiens; pH 2.7; Thermal; DSC; glycine-HCl 0.05 M; reversible: yes; structure 1LZ1; whole UniProt chain shown
The reply should be a number in °C, with the unit left off.

variant `V92M` , change of melting temperature, mutant - wild type (higher = more stable) observed: 2

variant `V20F` , change of melting temperature, mutant - wild type (higher = more stable) observed: -2.7

variant `V20L` , change of melting temperature, mutant - wild type (higher = more stable) observed: -0.2

variant `V128M` , change of melting temperature, mutant - wild type (higher = more stable) observed: 1.6

variant `V128G` , change of melting temperature, mutant - wild type (higher = more stable) observed: 1.6

variant `V92F` , change of melting temperature, mutant - wild type (higher = more stable) observed: -0.9

variant `V20G` , change of melting temperature, mutant - wild type (higher = more stable) observed: -7.5

variant `V92L` , change of melting temperature, mutant - wild type (higher = more stable) observed: 0.6

variant `V128F` , change of melting temperature, mutant - wild type (higher = more stable) observed: -0.2

variant `V128I` , change of melting temperature, mutant - wild type (higher = more stable) observed: 2.7

variant `V92I` , change of melting temperature, mutant - wild type (higher = more stable) observed: 1.7

variant `V20M` , change of melting temperature, mutant - wild type (higher = more stable) observed: -1

variant `V20I` , change of melting temperature, mutant - wild type (higher = more stable) observed: 3.4

variant `V128L` , change of melting temperature, mutant - wild type (higher = more stable) observed: 0.2
